- TARGET OF ASSAY: T1, Cyno CD98hc ECD Avi-His (cynomolgus macaque, UniProt P08195 105-529 (human entry))
- T1 construct: biotinylated on the Avi tag where captured on streptavidin; also called Cyno CD98-AVI-His; Cyno CD98hc-AVI-His
- T1 chain: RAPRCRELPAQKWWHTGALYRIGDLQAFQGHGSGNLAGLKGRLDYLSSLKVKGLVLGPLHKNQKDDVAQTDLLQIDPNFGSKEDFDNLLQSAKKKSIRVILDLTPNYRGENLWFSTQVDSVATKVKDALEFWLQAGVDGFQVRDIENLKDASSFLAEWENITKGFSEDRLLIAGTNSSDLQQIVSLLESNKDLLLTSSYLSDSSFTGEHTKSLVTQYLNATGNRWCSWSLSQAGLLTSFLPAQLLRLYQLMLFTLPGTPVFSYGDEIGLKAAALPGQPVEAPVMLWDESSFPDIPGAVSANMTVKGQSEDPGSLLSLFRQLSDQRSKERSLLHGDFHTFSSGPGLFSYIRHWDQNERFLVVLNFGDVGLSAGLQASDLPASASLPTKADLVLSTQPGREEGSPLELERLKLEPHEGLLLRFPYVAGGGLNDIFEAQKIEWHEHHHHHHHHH
- METHOD: ELISA, hybridoma supernatant
READOUT: OD450
One number for each entry.

{"BINDER": "CD98HC.04.009 (antibody, V domains shown, hybridoma IgG) VH: QVQLKESGPGLVAPSQSLSITCTVSGFSLTSYGVHWVRQPPGKGLEWLGVIWAGGSTYYNSALMSRLSISKDNAKSQVLLKMSSLQTDDTAMYYCARDNYGGVYLDVWGAGTTVTVSS VL: ENVLTQSPASMSASPGEKVTMTCRASSSVSSSYLHWYQQKSGASPKLWIYSTSNLASGVPARFSGSGSGTSYSLTISSVEAEDAATYYCQQYSGYPLTFGSGTKLEIK", "READOUT": "OD450", "EXPERIMENTAL RESULT": 1.42}
{"BINDER": "CD98HC.04.045 (antibody, V domains shown, hybridoma IgG) VH: QIQLVQSGPELKKPGETVKISCKASGYSITNFGMNWVKQAPGKGLKWMGWVNTYTGEPTYADDFKGRFAFSLETSASTASLQINNLKNEDTATYFCTRSVITYTMDYWGQGTSVTVSS VL: DIQLTQSPSSLSASLGERVSLTCRASQEISGYLSWLQQKPDGTIKRLIYAASTLDSGVPKRFSGSRSGSDYSLTISSLESEDFADYYCLQYASYPRTFGGGTKVEIK", "READOUT": "OD450", "EXPERIMENTAL RESULT": 1.34}
{"BINDER": "CD98HC.04.003 (antibody, V domains shown, hybridoma IgG) VH: QVQLQQSGAELAKPGASLKMSCKASGYTFTDYYIHWVKQRPGQDLEWIGYINPNSAYTDSNQKFKDKATLTADKSSNTAYMQLSSLTSEDSAVYYCARKGHFYAPSFAYWGQGTLVTVSA VL: DIQMTQTTSSLSASLGDRVTISCRASQDISNYLNWYQQKPDGTVKLLIYYTSRLHSGVPSRFSGSGSGADYSLTISNLQQEDIATYFCQQGDTLPYTFGGGTKLEIE", "READOUT": "OD450", "EXPERIMENTAL RESULT": 2.05}
{"BINDER": "CD98HC.04.062 (antibody, V domains shown, hybridoma IgG) VH: EVQLVESGGDLVKPGGSLKLSCTASRFAFSTYDMSWVRQTPEKRLEWVAYISSGGGSTYFPDTVKGRFTISRDNAKNTLYLQMSSLKSEDTAMYYCARQDGHYPWFPYWGQGTLVTVSA VL: DIVMSQSPSSLAVSVGEKVTMSCKSSQSLLYSGNQKTYLAWYQQKPGQSPKPLIYWASTRESGIPDRFTGSGSGTDFTLTISSVKAEDLAVYYCQQYYSYPPTFGAGTKLELK", "READOUT": "OD450", "EXPERIMENTAL RESULT": 1.63}

Proceeding to the next binder to report its OD450.
Query: Give the reported OD450 for this binder. CD98HC.03.004 (antibody, V domains shown, hybridoma IgG) VH: DVQLQESGPGLVKPSQSLSLTCTVTGYSITNNYAWNWIRRFPGNKLEWMAYISYSGYTSYNPSLKSRISITRDTSKNQFFLQLNSVTTEDTATYYCTGYFYYYGGGSFDYWGQGTTLTVSS VL: QAVVTQESALTTSPGETVTLTCRSSTGAVTTSNFANWVQEKPDHLFTGLIRGSNNRAPGVPARFSGSLIGDKAALTITGARTEDEAIYFCALWYSDHWVFGGGTKLTVL
Reply: 1.4
